Value source: ChEMBL document CHEMBL5579790

tested.system: UniProt P10608
measurement.description: Agonist activity at beta2-adrenergic receptor in rat L6 cells transfected with GLUT4 assessed as stimulation of skeletal muscle glucose uptake at 10 uM relative to isoprenaline
Format: functional, cell-based
setup.conditions: filed as agonist
Record form. Attribute: Activity. Fill in for each entry.
Numbers only, in %.

// known answers, use as guide
>>> data_value("CCC[C@@H]1C[C@H]([C@@H](O)c2cccc(F)c2)N1")
53
>>> data_value("CCC[C@@H](C)NC[C@@H](O)c1cccc(O)c1")
53

Query string: Item under review: CCC[C@H]1CC[C@@H]([C@@H](O)c2cccc(F)c2)N1 . Reported Activity?
Result string: 64

====

tested.system: Beta-2 adrenergic receptor (Rattus norvegicus) (UniProt P10608)
Sequence (P10608 whole entry, looked up): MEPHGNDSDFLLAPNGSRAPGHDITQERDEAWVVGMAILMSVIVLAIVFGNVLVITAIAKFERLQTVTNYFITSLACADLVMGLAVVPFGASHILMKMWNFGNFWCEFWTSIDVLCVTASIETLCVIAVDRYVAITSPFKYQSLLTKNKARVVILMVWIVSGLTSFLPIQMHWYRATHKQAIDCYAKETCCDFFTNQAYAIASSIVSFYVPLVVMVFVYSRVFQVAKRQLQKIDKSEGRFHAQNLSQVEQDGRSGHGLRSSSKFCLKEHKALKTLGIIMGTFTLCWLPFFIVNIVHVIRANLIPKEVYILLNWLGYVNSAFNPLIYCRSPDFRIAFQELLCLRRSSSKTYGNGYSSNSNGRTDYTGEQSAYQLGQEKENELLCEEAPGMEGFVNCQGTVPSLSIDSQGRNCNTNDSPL
measurement.description: Agonist activity at beta2-adrenergic receptor in rat L6 cells transfected with GLUT4 assessed as stimulation of skeletal muscle glucose uptake at 10 uM relative to isoprenaline
Type: functional, cell-based
setup.conditions: filed as agonist
Grouping rule (Activity): bin 0: < 50%; bin 1: ≥ 50% and < 70%; bin 2: ≥ 70%

Solved cases below.
>>> assigned_class("CCC[C@@H]1CC[C@H]([C@H](O)c2cccc(F)c2)N1")
"bin 2"
>>> assigned_class("CCC[C@H]1CCC[C@@H]([C@@H](O)c2cccc(F)c2)N1")
"bin 0"
>>> assigned_class("CCC[C@@H]1C[C@@H]([C@@H](O)c2cccc(F)c2)N1")
"bin 0"
>>> assigned_class("CCC[C@@H]1CC[C@@H]([C@@H](O)c2cccc(F)c2)N1")
"bin 1"

Then this compound:
Query string: Hello team, could you let me know which band the following compound falls into: CCC[C@H]1C[C@@H]([C@@H](O)c2cccc(F)c2)N1
Result string: bin 0

====

tested.system: Beta-2 adrenergic receptor (Rattus norvegicus) (UniProt P10608)
measurement.description: Agonist activity at beta2-adrenergic receptor in rat L6 cells transfected with GLUT4 assessed as stimulation of skeletal muscle glucose uptake at 10 uM relative to isoprenaline
Type: functional, cell-based
setup.conditions: filed as agonist
endpoint: Activity (%)
Answers are plain numbers, in %.

>>> data_value("CCC[C@@H]1CC[C@@H]([C@H](O)c2cccc(F)c2)N1")
43
>>> data_value("CCC[C@H](C)NC[C@H](O)c1cccc(O)c1")
79

For every listed record, write down its Activity.
1. CCC[C@@H]1CC[C@H]([C@@H](O)c2cccc(F)c2)N1
2. CCC[C@H]1CCCC[C@H]([C@H](O)c2cccc(F)c2)N1
3. CCC[C@@H]1CCCC[C@H]([C@@H](O)c2cccc(F)c2)N1
4. CCCCNC[C@H](O)c1cccc(F)c1
5. CCC[C@@H]1CCC[C@@H]([C@H](O)c2cccc(F)c2)N1
6. CCC[C@@H]1CCC[C@H]([C@H](O)c2cccc(F)c2)N1

Result string:
1: 41; 2: 47; 3: 52; 4: 57; 5: 42; 6: 52

For every listed record, write down its Activity.
1. CCC[C@H]1C[C@H]([C@H](O)c2cccc(F)c2)N1
2. CCC[C@@H]1CCC[C@H]([C@@H](O)c2cccc(F)c2)N1
3. CCC[C@H]1CCC[C@H]([C@@H](O)c2cccc(F)c2)N1

Result string:
1: 72; 2: 50; 3: 56

For every listed record, write down its Activity.
1. CCC[C@H]1CCC[C@H]([C@H](O)c2cccc(F)c2)N1
2. CCC[C@H]1CCC[C@@H]([C@H](O)c2cccc(F)c2)N1

Result string:
[54, 67]

For every listed record, write down its Activity.
1. CCCCNC[C@H](O)c1cccc(O)c1
2. CCC[C@@H]1C[C@H]([C@H](O)c2cccc(F)c2)N1
3. CCC[C@H]1CC[C@H]([C@H](O)c2cccc(F)c2)N1
4. CCC[C@@H](C)NC[C@H](O)c1cccc(O)c1

Result string:
63
103
52
130

For every listed record, write down its Activity.
1. CCC[C@H](C)NC[C@H](O)c1cccc(F)c1
2. CCC[C@@H](C)NC[C@H](O)c1cccc(F)c1

Result string:
1. 75
2. 90
